B1: VH:VL chains; a variant is named by its letters at X, in order (parent)
chain 1: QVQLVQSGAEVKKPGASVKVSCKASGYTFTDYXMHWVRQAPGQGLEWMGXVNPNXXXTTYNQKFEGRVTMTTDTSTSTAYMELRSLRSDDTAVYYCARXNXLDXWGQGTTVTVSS
chain 2: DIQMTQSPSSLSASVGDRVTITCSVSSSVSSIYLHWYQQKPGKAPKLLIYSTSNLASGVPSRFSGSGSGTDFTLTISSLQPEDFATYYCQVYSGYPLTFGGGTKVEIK

# Variants of: B1
# Test Method Notes: yeast display scFab, FACS + sequencing
# Run Conditions: with MET
The other results are listed elsewhere or left out. No count for the full screen is at hand.
Parameter: antigen binding call

Use the examples below as a reference point.
[[record]]
variant_description = "FRGGGSLD"
parameter = "antigen binding call"
assay_value = "binds"

[[record]]
variant_description = "VKGRSDVY"
parameter = "antigen binding call"
assay_value = "no binding"

[[record]]
variant_description = "YAARGAWD"
parameter = "antigen binding call"
assay_value = "no binding"

[[record]]
variant_description = "VEGGGDVA"
parameter = "antigen binding call"
assay_value = "no binding"

[[record]]
variant_description = "SGRGNDGV"
parameter = "antigen binding call"
assay_value = "no binding"

[[record]]
variant_description = "FKRGSSSY"
parameter = "antigen binding call"
assay_value = "binds"


Can you share its antigen binding call? I mean this variant: YRGRGAVF
binds

Repeat with DRARTFVA
no binding

YKRGSSSY , same question.
binds

Now give it for YRRRGFVV too.
binds

Record: YRRGGFVV
binds

Field entry: ARRGSSLD
binds

Entry to check: YRARSSVA
binds

Same for VAGTGDWY
no binding
